molecular target: monoclonal antibody 3C10 (produced by hybridoma cell line ATCC deposit designation PTA-9638); assay: FCS competition: 2 nM Alexa488-PIVKA-II (13-27) premixed with 10 nM mAb 3C10, analog peptide added, overnight; D of the tracer (high D = tracer displaced)
Sequence (VH, as listed by the source, chain 1 of 2): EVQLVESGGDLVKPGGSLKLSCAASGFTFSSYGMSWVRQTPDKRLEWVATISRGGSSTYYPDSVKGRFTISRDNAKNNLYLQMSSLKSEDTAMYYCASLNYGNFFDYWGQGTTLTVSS
Sequence (VL, as listed by the source, chain 2 of 2): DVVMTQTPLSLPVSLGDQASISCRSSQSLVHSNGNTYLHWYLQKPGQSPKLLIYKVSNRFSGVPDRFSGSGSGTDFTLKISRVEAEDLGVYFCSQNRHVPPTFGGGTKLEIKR
Bridge positions count the residues as written; N and C are the ends. Ends that are not written are not given here.
Mark 1.0 only when Apparent Diffusion Coefficient (D) stays strictly below 50 um^2/sec. Values equal to the cut-off are 0.0.

Binder	Class name
LERECMEEKCSFEEA (disulfide 5-10 (inferred)) [13-27 Gla domain PIVKA IX peptide]	1.0
LERECMEETCSYEEA (disulfide 5-10 (inferred)) [13-27 Gla domain PIVKA Factor X peptide]	0.0
LERECIEEICDFEEA (disulfide 5-10 (inferred)) [13-27 Gla domain PIVKA Protein C peptide]	0.0

All values here come from patent US9120862.
